Could you please report measured apparent KD of MS2 coat protein for the items listed next?
- Test system: MS2 coat protein
- procedure.summary: apparent KD of MS2 coat protein; designed switch direction (-1 OFF switch, 1 ON switch): -1; higher = weaker reporter binding
- applied.conditions: Eterna round: R95; input ligand: microRNA oligo, concentration not stated
Answers are plain numbers, in nM.

- sequence: "CUUUGAUGAGGAUAUCGAGGUUAGUACAUGAGGAUCACCCAUGUUAUCCAGGUGUCGGUUCGAGAAGGUAUUGGAC [LRO-Ex5-17] (puzzle: Exclusion 5)"
  apparent KD of MS2 coat protein / nM: 15.6
- sequence: "UUGGUUAUCUAUGGGAGUAACAUGAGGAUCACCCAUGUAUGUCUUGUUUUUUGUUCGUCAUAGGCCUUUUGUUUGGA [JR_SV3TOV1_Sub024] (puzzle: Sensor v3, turn-off variant 1)"
  apparent KD of MS2 coat protein / nM: 35
- sequence: "GAUUGACAUGAGGAUCACCCAUGUGAGGAUAUCGGCUGGACCGUGUUGGCUUGCCUCUCGAGAAGGCGCAUAGG [Exclusion 1 V52] (puzzle: Exclusion 1)"
  apparent KD of MS2 coat protein / nM: 35
- sequence: "CAUAUAGUAGUCAGGAUAUGCGAAGAGAGAAGGAAGUAGAAGGGACAUGAGGAUCACCCAUGUAUAUUGUAAAG [EX-4 Malc #3] (puzzle: Brourd's mod of Exclusion 4)"
  apparent KD of MS2 coat protein / nM: 28.9
- sequence: "CGUAUGUGAGGAUAUGACAAUGGUAUCUUCGGAUACCAUUGUCAGAAGGUACAUGAGGAUCACCCAUGUAGAUC [Exclusion 4 - Mod Brourd Ex 4-3: 20 v.3] (puzzle: Exclusion 4)"
  apparent KD of MS2 coat protein / nM: 24

Field: apparent KD of MS2 coat protein. Fill in for each record below.
1. AUAAUAAUAUAGGAUAUCGAAUUAAUUAUUUAACGAGAAGGAUGAACAUGAGGAUCACCCAUGUGGUAUCAUGG [Mat - Exclusion 6 - JL Mod - D34] (puzzle: Exclusion 6)
2. UUUUACAUAGGAUAUAGUUUGUUGUACAUGAGGAUCACCCAUGUUUUUGGUUGUGCUUUUCUAGAAGGAUGUUUCU [JR_E5_Sub015] (puzzle: Exclusion 5)
3. CUUAGACAUGAGGAUCACCCAUGUGAGGAUAUGAUGCGAUCGUCGAAAGACGAUAGCAUCAGAAGGUACAAAUG [Fiskers Ex 1 - 21] (puzzle: Exclusion 1)
4. CGUUGAUGAGGAUAUCGAUGUUAGUACAUGAGGAUCACCCAUGUUAUCCAAGUGUCGGAUCGAGAAGGUAUUGGAC [LRO-Ex5-19] (puzzle: Exclusion 5)

OUTPUT:
1. 244
2. 43.8
3. 90.5
4. 241

----------
- Test system: MS2 coat protein
- procedure.summary: apparent KD of MS2 coat protein; designed switch direction (-1 OFF switch, 1 ON switch): 1; higher = weaker reporter binding
- applied.conditions: Eterna round: R95; input ligand: FMN 200 uM
Exercise: state measured apparent KD of MS2 coat protein for each of the sequences provided.
Give bare numbers, in nM.

Hi! Can you tell me apparent KD of MS2 coat protein for each of these sequences?
1. AUAAGUUCGAUGCUCGUCUCUCCGUACAAACAUGAGGAUCACCCAUGUGAUCGGGAAGUAGCCCGGUCAGUAUGGCC [Ordierti] (puzzle: Sensor for hsa-mir-208a)
2. GGUUUAGUCAAGCGCAGUUGCACUUGAAAACAUGAGGAUCACCCAUGUUUGGGACAAGCUUUGCUCCUCGUCUUUCC [Dicebior] (puzzle: Sensor for hsa-mir-208a)
3. UGCAUACAUGAGGAUCACCCAUGUCUACGAUGUCGAGGAUAUGGAUUGCCGUGAGGCGUGCCAGAAGGCGAAGUGG [Same State 1 - Mod of Vinnie Teenbexe v.2] (puzzle: Same State 1)
4. AGUCCAGCAUAAGCUGGACAAAAGCAUGUACAUGAGGAUCACCCAUGUUCAUGUACAAGCUUUUUGCUCGUCAAAAG [Mat - hsa-mir-208a - Mod of JL - 71] (puzzle: Sensor for hsa-mir-208a)
5. GGAGCCGGUACUGAGGAUAUUCAUCUUAAAACAUGAGGAUCACCCAUGUAGGCCAGAAGGCCUUGGGAGAAGGCAGAUCGGCUCC [Biseusra - 7] (puzzle: Same State 2)
6. AGAAGGAGAGCGCAGGAUAUCGAUAAUGACACAUGAGGAUCACCCAUGUUUGGUAUUAGAAGGAACGAGAAGGGUGAAAGGAGAA [knee_arm_01] (puzzle: Same State 2)

OUTPUT:
[35.1, 194, 26.2, 215, 20, 59.2]
